Target Or Test System: UniProtKB P21397
Sequence (P21397 whole entry): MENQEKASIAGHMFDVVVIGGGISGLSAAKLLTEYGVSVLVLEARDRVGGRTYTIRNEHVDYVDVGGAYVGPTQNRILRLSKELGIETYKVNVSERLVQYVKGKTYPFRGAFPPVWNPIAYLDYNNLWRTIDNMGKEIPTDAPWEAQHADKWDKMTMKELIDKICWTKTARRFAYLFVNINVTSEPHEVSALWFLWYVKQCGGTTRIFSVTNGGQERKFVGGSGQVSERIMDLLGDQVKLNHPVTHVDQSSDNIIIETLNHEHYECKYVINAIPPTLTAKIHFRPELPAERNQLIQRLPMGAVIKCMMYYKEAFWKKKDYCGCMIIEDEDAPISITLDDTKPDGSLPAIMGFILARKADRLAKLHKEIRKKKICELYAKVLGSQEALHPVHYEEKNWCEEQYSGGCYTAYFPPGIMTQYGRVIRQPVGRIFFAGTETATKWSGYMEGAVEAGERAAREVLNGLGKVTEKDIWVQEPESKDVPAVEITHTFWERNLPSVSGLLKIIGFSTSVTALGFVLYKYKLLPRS
Measurement Protocol: Inhibition of human recombinant MAOA expressed in baculovirus infected BTI-TN-5B1-4 insect cells assessed as hydrogen peroxide production from p-tyramine after 15 mins by amplex red assay
Recorded measurements of pIC50, one per entry
Lab note — pIC50 values are minus log10 of concentrations in M.

O=C1c2ccccc2C2=NCCc3cccc1c32 = 4.56
COc1cc2c3c(c1)C(=O)c1ccccc1C3=NCC2 = 7.85
COc1cc2c3c(c1)C(O)c1ccccc1C3NCC2 (centres undefined) = 5.01
COc1cc2c3c(c1O)C(=O)c1ccccc1C3=NCC2 = 7.36
COc1cc2c3c(c1)C(=O)C1=C(CCCC1)C3=NCC2 = 5.67
O=C1c2ccccc2-c2nccc3cc(O)cc1c23 = 7.46
COC1=Cc2ccnc3c2c(cc2ccccc23)C1=O = 7.89
COc1cc2ccnc3c2c(c1O)C(=O)c1ccccc1-3 = 5.91

Query: What value of measured pIC50 is listed for "O=C1c2ccccc2-c2nccc3cccc1c23" ?
Reply: 6.14

====

Recorded measurements of Ratio IC50, one per entry
Organism: Homo sapiens
Measurement Protocol: Selectivity index, ratio of IC50 for human recombinant MAO-B to IC50 for human recombinant MAO-A

COc1cc2c3c(c1)C(O)c1ccccc1C3NCC2 (centres undefined) = > 5.1
O=C1c2ccccc2-c2nccc3cccc1c23 = > 139
COC1=Cc2ccnc3c2c(cc2ccccc23)C1=O = > 7690
COc1cc2c3c(c1)C(=O)c1ccccc1C3=NCC2 = > 7140
O=C1c2ccccc2C2=NCCc3cccc1c32 = > 3.7

Query: What value of measured Ratio IC50 is listed for "O=C1c2ccccc2-c2nccc3cc(O)cc1c23" ?
Reply: > 2860

Query: What value of measured Ratio IC50 is listed for "COc1cc2ccnc3c2c(c1O)C(=O)c1ccccc1-3" ?
Reply: > 81

Query: What value of measured Ratio IC50 is listed for "COc1cc2c3c(c1)C(=O)C1=C(CCCC1)C3=NCC2" ?
Reply: > 24

Query: What value of measured Ratio IC50 is listed for "COc1cc2c3c(c1O)C(=O)c1ccccc1C3=NCC2" ?
Reply: > 2270

====

Target Or Test System: Amine oxidase [flavin-containing] B (Homo sapiens, UniProt P27338)
Measurement Protocol: biochemical
Description: Inhibition of human recombinant MAOB expressed in baculovirus infected BTI-TN-5B1-4 insect cells assessed as hydrogen peroxide production from p-tyramine after 15 mins by amplex red assay
pIC50: −log10 of the molar value.
Readout Name: pIC50

Below are worked cases with known answers.
COc1cc2c3c(c1)C(=O)c1ccccc1C3=NCC2 = < 4.00
COc1cc2c3c(c1)C(=O)C1=C(CCCC1)C3=NCC2 = < 4.30
O=C1c2ccccc2-c2nccc3cc(O)cc1c23 = < 4.00

Query: What value of measured pIC50 is listed for "COc1cc2c3c(nccc3c1)-c1ccccc1C2=O" ?
Reply: < 4.00

Query: What value of measured pIC50 is listed for "COc1cc2c3c(c1O)C(=O)c1ccccc1C3=NCC2" ?
Reply: < 4.00

Query: What value of measured pIC50 is listed for "COC1=Cc2ccnc3c2c(cc2ccccc23)C1=O" ?
Reply: < 4.00

Query: What value of measured pIC50 is listed for "COc1cc2ccnc3c2c(c1O)C(=O)c1ccccc1-3" ?
Reply: < 4.00

====

Target Or Test System: Amine oxidase [flavin-containing] B (Homo sapiens, UniProt P27338)
Sequence (P27338 whole entry): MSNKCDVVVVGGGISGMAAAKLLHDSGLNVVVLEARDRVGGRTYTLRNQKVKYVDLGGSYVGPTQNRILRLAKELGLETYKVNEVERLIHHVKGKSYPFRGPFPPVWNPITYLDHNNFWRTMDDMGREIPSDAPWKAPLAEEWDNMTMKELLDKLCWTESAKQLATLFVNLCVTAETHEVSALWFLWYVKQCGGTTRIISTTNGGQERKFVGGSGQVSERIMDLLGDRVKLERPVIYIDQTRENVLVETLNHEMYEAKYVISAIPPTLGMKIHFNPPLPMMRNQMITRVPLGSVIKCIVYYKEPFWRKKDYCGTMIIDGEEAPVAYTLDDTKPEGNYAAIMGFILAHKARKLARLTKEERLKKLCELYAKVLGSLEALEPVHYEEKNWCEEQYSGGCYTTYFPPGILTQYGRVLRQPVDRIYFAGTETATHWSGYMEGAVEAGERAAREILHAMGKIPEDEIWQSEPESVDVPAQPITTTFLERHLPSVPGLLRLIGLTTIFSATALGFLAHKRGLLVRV
Measurement Protocol: biochemical
Readout Name: IC50

Below are worked cases with known answers.
O=C1c2ccccc2-c2nccc3cccc1c23 = > 100 µM
O=C1c2ccccc2C2=NCCc3cccc1c32 = > 100 µM

Query: What value of measured IC50 is listed for COc1cc2c3c(c1)C(O)c1ccccc1C3NCC2 (stereo not drawn) ?
Reply: > 50 µM
